# EXPERIMENT DESCRIPTION: Biodistribution in HEK-uPAR xenografted nude mice
# CONDITION CONTEXT: CD1 nude, mouse, liver, 0.5 nmol/mouse, total radioactivity, Liver uptake, 1 h p.i.; decay-corrected
TEST READOUT: tissue uptake at 1 h (%ID/g)
# output: bare number, implied unit %ID/g

Req: Can you share its tissue uptake at 1 h? I mean this compound: CC(C)C[C@H](NC(=O)[C@H](Cc1ccc(O)cc1)NC(=O)[C@@H](CCCNC(=N)N)NC(=O)[C@@H](CO)NC(=O)[C@H](Cc1ccccc1)NC(=O)[C@H](CC1CCCCC1)NC(=O)[C@H](CC(=O)O)NC(=O)CN1CCN(CC(=O)O)CCN(CC(=O)O)CCN(CC(=O)O)CC1)C(=O)N[C@@H](Cc1c[nH]c2ccccc12)C(=O)N[C@@H](CO)C(N)=O [[^177Lu]Lu-DOTA-AE105, metal not drawn]
Resp: 0.4
